assay: Solubility of clonazepam in neat solvents; conditions: PEG 300 (neat solvent), organic solvent or mixture
Measurement type: solubility (mg/mL)
Give the quantity in mg/mL, number only.

What value of measured solubility is listed for O=C1CN=C(c2ccccc2Cl)c2cc([N+](=O)[O-])ccc2N1 ?
37

* * *

test: Solubility of clonazepam in glycol ethers at 25° C.; conditions: di(ethylene glycol) diethyl ether, neat solvent, organic solvent or mixture, thermodynamic from solid
Measurement type: solubility
Hi, when you answer, please include the unit after the number. Thanks!

solubility lookup needed for O=C1CN=C(c2ccccc2Cl)c2cc([N+](=O)[O-])ccc2N1 [Clonazepam] , thanks.
19 mg/mL

* * *

assay: Drug recovery, degradation and binding to nasal sheep mucosa; type: in vitro ADME; settings: sheep nasal mucosa (excised tissue) in buffer, 37° C., buffer pH 6 (10% ethanol), 24 h, read-out: % recovery in the presence of nasal sheep mucosa
Measurement type: recovery at 24 h, 10 μg/mL (%)
Please give a number only; it is taken to be in %.

Recorded recovery at 24 h, 10 μg/mL, per entry:
>>> experimental_value("O=C1CN=C(c2ccccc2Cl)c2cc([N+](=O)[O-])ccc2N1")
97.5
>>> experimental_value("O=C1Nc2ccc(Cl)cc2C(c2ccccc2Cl)=NC1O (stereo not drawn)")
96.8

// below: recovery at 24 h, 10 μg/mL requested for another compound
Using the record for CN1C(=O)CN=C(c2ccccc2)c2cc(Cl)ccc21 , report its recovery at 24 h, 10 μg/mL.
98
